# System: Hepatitis C virus
# assay_procedure: Antiviral activity against HCV 1b infected in human HuH7 cells assessed as inhibition of viral sub-genomic replication by EG(delta-4AB)SEAP reporter protein assay
# Format: functional, organism-based, Hepacivirus hominis
# condition_notes: genotype 1b, Huh-7
Can you tell me EC50 for the items I'm about to list?

INSERT INTO results (input_smiles, system_name, observed) VALUES
  ('O=S(=O)(NC(=S)N1CCc2c(OCCCCCOc3ccc(Cl)cc3)cccc21)c1ccccc1', 'Hepatitis C virus', '> 50 µM'),
  ('NC(=S)N1CCCc2c(OCCCCCOc3cccc4ccccc34)cccc21', 'Hepatitis C virus', '> 50 µM');

Switching to the query record.
Exercise: What EC50 value was documented for this compound, `O=C(NC(=S)N1CCc2cccc(OCc3ccccc3)c21)c1ccccc1` ?
Key: > 50 µM

---

# assay_procedure: Cytotoxicity against human HuH7 cells
# Assay type: cell-based, Huh-7
assay_metric: CC50

For every record below, what is its CC50?
1. O=C(NC(=S)N1CCc2c(OCCCCCOc3ccc(Cl)cc3)cccc21)C1CCCC1
2. O=C(NC(=S)N1CCc2c(OCCCCCOc3ccc(Cl)cc3)cccc21)Oc1ccccc1
3. O=C(NC(=S)N1CCc2c(OCCCCCOc3ccc(Cl)cc3)cccc21)c1ccccc1

Key:
["> 50 µM", "> 50 µM", "> 50 µM"]

Would you mind listing CC50 for each of the following compounds?
1. O=C(NC(=S)N1CCc2c(OCCCCCOc3ccc(Cl)cc3)cccc21)C1CCCCC1
2. Cc1ccc(C(=O)NC(=S)N2CCc3c(OCCCCCOc4ccc(Cl)cc4)cccc32)cc1

Key:
1: > 50 µM; 2: > 50 µM

Each of the following entries comes with a recorded value; kindly state CC50 for each.
1. O=C(NC(=S)N1CCc2c(OCCCCCOc3ccc(Cl)cc3)cccc21)c1cc2ccccc2s1
2. O=C(CCc1ccccc1)NC(=S)N1CCc2c(OCCCCCOc3ccc(Cl)cc3)cccc21
3. CC(C)(C)c1ccc(C(=O)NC(=S)N2CCc3c(OCCCCCOc4ccc(Cl)cc4)cccc32)cc1

Key:
1. > 50 µM
2. > 50 µM
3. > 50 µM

---

# assay_procedure: Cytotoxicity against human HuH7 cells
# Format: cell-based, Huh-7
For each entry below, report its CC50 value.
Numbers only, in µM.

Worked cases, answers included:
INSERT INTO measurements (input_smiles, assay_metric, result_units, observed) VALUES
  ('O=C(NC(=S)N1CCc2c(OCCCCCOc3ccc(Cl)cc3)cccc21)c1ccc(Cl)cc1', 'CC50', 'µM', 21.7),
  ('O=C(NC(=S)N1CCc2c(OCCCCCOc3ccc(Cl)cc3)cccc21)c1cccs1', 'CC50', 'µM', 10.7),
  ('O=C(NC(=S)N1CCc2c(OCCCCCOc3ccc(Cl)cc3)cccc21)c1ccc(Br)cc1', 'CC50', 'µM', 29.1),
  ('O=C(NC(=S)N1CCc2c(OCCCCCOc3ccc(Cl)cc3)cccc21)c1ccoc1', 'CC50', 'µM', 20.1),
  ('O=C(NC(=S)N1CCc2c(OCCCCCOc3ccc(Cl)cc3)cccc21)c1ccc([N+](=O)[O-])cc1', 'CC50', 'µM', 13.6),
  ('O=C(NC(=S)N1CCc2cc(OCc3ccccc3)ccc21)c1ccccc1', 'CC50', 'µM', 45.2),
  ('O=C(NC(=S)N1CCc2ccc(OCc3ccccc3)cc21)c1ccccc1', 'CC50', 'µM', 43.8);

Exercise: So what does the record say about CC50 for `O=C(NC(=S)N1CCc2c(OCCCCCOc3ccc(Cl)cc3)cccc21)c1cccnc1` ?
Key: 11.1

These data points were gathered from ChEMBL document CHEMBL1152383.
